TARGET DESC: T1, Tat(44-61) (UniProt P04608 44-61)
T1 chain: GISYGRKKRRQRRRAHQN
EXPERIMENT NOTES: MST
pKd: −log10 of the molar value.
OBSERVED PROPERTY: pKd

INSERT INTO assay_data (binder, observed_property, reported_result) VALUES
  ('AUGUGGAAAAUCUCUAGCAGU (ssRNA) [21R+]', 'pKd', 5.20);
